Below, each entry is listed with its recorded pKd.
- subject-of-test: the molecule itself
- protocol-notes: MST; RED-tris-NTA labelled protein at 50 nM, unlabelled protein of the same construct titrated from 10 uM (16-step serial dilution), PBS, 15 min at room temperature; Monolith NT.115; oligomerisation, step of the constant not told
When answering, recall that pKd equals minus log10 of the concentration in mol/L, and write that number alone.

{"columns": ["protein", "pKd"],
 "data": [
  ["ZFs (the two zinc finger domains of NDP52, amino acid residues 380-446) (domain or fragment, UniProt Q13137 380-446, looked up, NDP52/CALCOCO2, zinc finger domains ZF1 and ZF2, amino acid residues 380-446; also called ZFs domain; source: E. coli BL21 DE3, purified (HisTrap FF, Superdex 200 SEC)) YSGIQESSSPSPLSIKKCPICKADDICDHTLEQQQMQPLCFNCPICDKIFPATEKQIFEDHVFCHSL", 6.74]
]}

Then there is this protein:
Ask: I have this protein here, CNDP52 (C-terminal region of NDP52, amino acid residues 365-446) (domain or fragment, UniProt Q13137 365-446, looked up, NDP52/CALCOCO2, a section of the coiled-coil and both zinc finger domains, amino acid residues 365-446; source: E. coli BL21 DE3, purified (HisTrap FF, Superdex 200 SEC)) EGGARQNPGLAYGNPYSGIQESSSPSPLSIKKCPICKADDICDHTLEQQQMQPLCFNCPICDKIFPATEKQIFEDHVFCHSL , and I need its recorded pKd.
Reply: 7.30

Data provenance is paper PMC10195817.
